Molecular target: neuraminidase (NA) of A/Kanagawa/IC18141/2019 (Influenza A virus (H3N2), UniProt A0A193ACB1)

{"Smiles Structure": "CCC(CC)[C@H](NC(C)=O)[C@@H]1[C@H](O)[C@@H](C(=O)O)C[C@H]1N=C(N)N", "IC50 (pM)": 180}
